- Test system: D-aminoacylase
- ASSAY EXPLANATION: Substrate specificity of the D-aminoacylase (amino acid produced, assayed by TNBS or HPLC method)
- Format: biochemical, Hypomyces mycophilus
- SETUP CONDITIONS: purified enzyme, property (c)
OBSERVABLE: substrate specificity: the enzyme acts on / not on the substrate

CC(=O)N[C@H](C(=O)O)C(C)C not on
CC(=O)N[C@@H](Cc1c[nH]c2ccccc12)C(=O)O not on
CSCC[C@H](NC(C)=O)C(=O)O not on
CC(=O)N[C@H](CC(C)C)C(=O)O acts on
CC(=O)N[C@H](Cc1c[nH]c2ccccc12)C(=O)O acts on

Query `CSCC[C@@H](NC(C)=O)C(=O)O` yields substrate specificity: the enzyme acts on / not on the substrate of acts on

Form: compound = `CC(=O)N[C@@H](C(=O)O)C(C)C` ; substrate specificity: the enzyme acts on / not on the substrate = acts on

====

- Test system: D-aminoacylase
- ASSAY EXPLANATION: Substrate specificity of the D-aminoacylase (amino acid produced, assayed by TNBS or HPLC method)
- Type: biochemical, Hypomyces mycophilus
- SETUP CONDITIONS: purified enzyme, property (c)
OBSERVABLE: substrate specificity: the enzyme acts on / not on the substrate

CC(=O)N[C@@H](Cc1ccccc1)C(=O)O not on
CC(=O)N[C@@H](CC(C)C)C(=O)O not on
